- tgt: UniProt:P31645
- protocolDescription: Inhibition of wild-type human SERT expressed in HEK293 MSR cells assessed as [3H]-5-HT uptake preincubated for 30 mins followed addition of [3H]-5HT and compound for 10 mins by micro-scintillation counter
- Type: cell-based
Can you tell me log10(Ki) for the items I'm about to list?
All values: log10 Ki [µM].

Request: Identify measured log10(Ki) corresponding to CN(C)CCCN1c2ccccc2CCc2ccc(C#CCOCCCN3c4ccccc4CCc4ccccc43)cc21
Response: 1.11

Request: Give log10(Ki) for the following compound: CN(C)CCCN1c2ccccc2CCc2ccc(CCCOCCCOCCCN3c4ccccc4CCc4ccccc43)cc21
Response: 0.77

Request: Provide measured log10(Ki) value, entry: CN(C)CCCN1c2ccccc2CCc2ccc(C#CCOCCOCCc3cccc4ccccc34)cc21
Response: 0.04

Request: Please supply the value of reported log10(Ki) for the item CN(C)CCCN1c2ccccc2CCc2ccc(C#CCOCCOCCOc3cccc4ccccc34)cc21
Response: 0.81

Request: // fetch log10(Ki) given entry CN(C)CCCN1c2ccccc2CCc2ccc(CCCOCCCOc3cccc4ccccc34)cc21
Response: 0.08

Request: Hello, please tell me recorded log10(Ki) for this one: CN(C)CCCN1c2ccccc2CCc2ccc(C#CCOCCCOc3cccc4ccccc34)cc21
Response: 0.54

Request: Name the recorded log10(Ki) of the item CN(C)CCCN1c2ccccc2CCc2ccc(CCCOCCCN3c4ccccc4CCc4ccccc43)cc21 in your answer.
Response: 0.80

Request: Tell me log10(Ki) reported for CN(C)CCCN1c2ccccc2CCc2ccc(CCCOCCOc3cccc4ccccc34)cc21
Response: -0.22

Request: Please give measured log10(Ki) of the following entry: CN(C)CCCN1c2ccccc2CCc2ccc(C#CCOCCOc3cccc4ccccc34)cc21
Response: 0.54

Request: Note down log10(Ki) recorded for CN(C)CCCN1c2ccccc2CCc2ccc(C#CCOCCOc3ccc4ccccc4c3)cc21
Response: 0.18

Request: Indicate the recorded log10(Ki) value for this compound: CN(C)CCCN1c2ccccc2CCc2ccc(C#CCOCCCOCCCN3c4ccccc4CCc4ccccc43)cc21
Response: 1.04

Request: Return value of log10(Ki) for input CN(C)CCCN1c2ccccc2CCc2ccc(CCCOCCOCCc3cccc4ccccc34)cc21 , no commentary.
Response: 0.00

* * *

- tgt: Sodium-dependent serotonin transporter (Homo sapiens, UniProt P31645, W103A)
- Sequence (P31645 whole entry W103A): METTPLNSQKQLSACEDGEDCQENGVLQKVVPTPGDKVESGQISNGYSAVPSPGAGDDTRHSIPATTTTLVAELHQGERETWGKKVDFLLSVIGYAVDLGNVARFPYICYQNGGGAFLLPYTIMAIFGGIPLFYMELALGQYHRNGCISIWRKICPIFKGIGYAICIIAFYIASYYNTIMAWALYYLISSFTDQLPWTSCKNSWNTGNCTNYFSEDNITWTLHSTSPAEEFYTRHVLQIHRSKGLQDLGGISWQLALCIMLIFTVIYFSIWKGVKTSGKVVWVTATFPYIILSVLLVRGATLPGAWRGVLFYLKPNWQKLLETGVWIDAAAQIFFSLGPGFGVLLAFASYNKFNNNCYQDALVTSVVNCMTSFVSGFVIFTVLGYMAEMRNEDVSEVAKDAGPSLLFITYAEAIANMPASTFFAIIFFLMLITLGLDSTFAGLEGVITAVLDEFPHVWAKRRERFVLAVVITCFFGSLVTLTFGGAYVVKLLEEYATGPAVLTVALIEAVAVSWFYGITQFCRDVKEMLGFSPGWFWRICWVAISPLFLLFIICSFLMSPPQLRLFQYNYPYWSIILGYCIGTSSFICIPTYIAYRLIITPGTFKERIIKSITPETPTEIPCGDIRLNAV
- protocolDescription: Inhibition of human SERT W103A mutant expressed in HEK293 MSR cells assessed as [3H]-5-HT uptake preincubated for 30 mins followed addition of [3H]-5HT and compound for 10 mins by micro-scintillation counter
parameter: pIC50
Formally, pIC50 is defined as -log10 of the concentration c, with c in mol/L.

Request: Answer with reported pIC50 of CN(C)CCCN1c2ccccc2CCc2ccc(C#CCOCCCOCCCN3c4ccccc4CCc4ccccc43)cc21
Response: 5.39

Request: Assign pIC50 to the following record: CN(C)CCCN1c2ccccc2CCc2ccc(CCCOCCOc3cccc4ccccc34)cc21
Response: 6.55

Request: For the compound C#Cc1ccc2c(c1)N(CCCN(C)C)c1ccccc1CC2 , give its reported pIC50.
Response: 7.40

Request: Provide only the value of recorded pIC50 for CN(C)CCCN1c2ccccc2CCc2ccc(CCCOCCCOc3cccc4ccccc34)cc21
Response: 6.22

Request: Return pIC50 (reported value) for this compound: CN(C)CCCN1c2ccccc2CCc2ccc(C#CCOCCOCCc3cccc4ccccc34)cc21
Response: 6.52

Request: Tell me pIC50 reported for CN(C)CCCN1c2ccccc2CCc2ccc(C#CCOCCOc3cccc4ccccc34)cc21
Response: 5.32

Request: Give the measured pIC50 for CN(C)CCCN1c2ccccc2CCc2ccc(CCCOCCCN3c4ccccc4CCc4ccccc43)cc21
Response: 6.57

Request: Please supply the value of reported pIC50 for the item CN(C)CCCN1c2ccccc2CCc2ccc(C#CCOCCOCCSc3cccc4ccccc34)cc21
Response: 6.25

Request: In one line, give reported pIC50 of the entry CN(C)CCCN1c2ccccc2CCc2ccc(CCCOCCCOCCCN3c4ccccc4CCc4ccccc43)cc21 .
Response: 6.08
